Hi there, I'd appreciate the recorded TGI for every entry that follows.
- System: U251 CNS
- Assay text: NCI tumour cell line growth inhibition, 48 h

Answered cases to consult:
{"Molecule": "COC(=O)C(C(=O)C(=O)Nc1ccccc1OC)c1csc(-n2nc(-c3ccccc3)cc2-c2ccccc2)n1 (stereo unspecified)", "TGI": "> 100 µM"}
{"Molecule": "COC(=O)[C@]1(c2cc3ccccc3[nH]2)CC2CN(CC(=O)N(C)OC)C1C1OC(C)(C)OC21 (stereo partly specified)", "TGI": "> 100 µM"}
{"Molecule": "CCOC(=O)c1c(C)c2c(n1C)CSc1cc(S(=O)(=O)c3ccccc3)c(=O)[nH]c1-2", "TGI": "> 100 µM"}
{"Molecule": "CCOC(=O)Cn1nc2ccc(Nc3nc4ccccc4nc3C(=O)OCC)cc2n1", "TGI": "> 100 µM"}
{"Molecule": "NC(N)=NC(N)=NCCc1ccccc1", "TGI": "> 100 µM"}

Now examine the next entry.
Field TGI (entry CC[C@H](CCCCC1CC[C@@H]2CC(=O)C[C@H]12)OC (stereo partly specified) ) reads > 100 µM
